Reference source: patent US20240052052A1

measured.target: T1, human CD24 (human, UniProt P25063 27-59, heavily glycosylated, GPI-anchored (as described in the background))
T1 construct: whole, on cells; Target of all cell-based FACS assays; also called hCD24; Cluster of differentiation 24
T1 chain (looked up): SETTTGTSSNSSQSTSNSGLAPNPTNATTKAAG
measurement.protocol: FACS, 5637 cells
experimental.readout: pEC50
Notebook: values listed as pEC50 are -log10 of the concentration (mol/L).

Determine its reported pEC50: SN3 (antibody, V domains shown) VH: QVQLKESGPGLVAPSQSLSITCTVSGFSLTSYGVHWVRQPPGKGLEWLGVIWAGGSTNYNSALMSRLSISKDNSKSQVFLKMNSLQTDDTAMYYCAVYYGYLFFAYWGQGTLVTVSA VL: ENVLTQSPAIMSASPGEKVTMTCSASSSVSYMHWYQQKSTTSPKLWIYDTSKLASGVPGRFSGSGSGNSYSLTISSMEAEDVATYYCFQGSGYPLTFGGGTKLEIK 8.57
